Reported melting point values follow for various compounds

Worked set:
CC1(O)CCN(Cc2ccc(C#CC(=O)Nc3ccc(-c4ccc(Cl)cc4)cc3)cc2)CC1    192 to 193 °C
CC(=O)N1CCC(CNc2nc3ccccc3s2)CC1    138 °C
O=C(Cc1ccccc1Nc1c(Cl)cccc1Cl)OCCOCCOCCO[N+](=O)[O-]    68 °C
NC(=O)Cc1ccc2c(c1)C(=O)Cc1ccccc1S2    171 to 172 °C
Cn1c(C(F)(F)F)cc(=O)n(-c2cc(OCCBr)c(Cl)cc2F)c1=O    125 to 127 °C
Cc1ncn(-c2nc(-c3ccc(Cl)cc3)c(CCC(=O)O)o2)c1C    225 to 226 °C

Item under review: CC(=O)N1C(C(=O)O)CSC1C(C)c1ccc(CC(C)C)cc1 (stereo not given) . Reported melting point? 150 to 153 °C

Item under review: `Nc1nc(-c2cn([C@H](CO)CCc3ccccc3)cn2)n[nH]1` . Reported melting point? 80 °C

Item under review: `COC(=O)[C@H](Cc1c[nH]cn1)NC(=O)[C@H](Cc1ccccc1)NC(=O)OCc1ccccc1` . Reported melting point? 113 to 116 °C

Item under review: CC(=O)O[C@H]1CS[C@H](COC(=O)c2ccccc2)O1 (relative stereo) . Reported melting point? 67 to 68 °C
